Data provenance: PubChem BioAssay AID1745853

Molecular target: Phenylethanolamine N-methyltransferase (Homo sapiens)
Experiment: Primary Screen for Target Class Profiling of Small Molecule Inhibitors of Methyltransferases; note: % is set by controls: 0 for no effect and ±100 for the full control effect
Settings: purified enzyme, MTase-Glo SAH luminescence; measured here: PNMT inhibition; at 40 µM; stronger effect = lower value
Out of some 25,000 compounds screened, about 970 (3.9%) were called active. About 8% were inconclusive and are not listed. What follows is part of a selection rich in actives, with near analogues and random picks from the rest.
Reported activity change, negative = inhibition values for the following compounds.
Give your result in % as a bare value.

Examples with their reported activity change, negative = inhibition follow.
Reported activity change, negative = inhibition for CCC(C)(C)NC(=O)c1cccc2c1CCN2C(=O)Nc1ccc(C)cc1 : what is it?
-2.44

Entry to check: O=C(c1ccc(C(F)(F)F)cc1)N1CCC2(COc3ccncc3[S+](=O)([O-])N2)C1 (stereo unspecified)
-0.429

Entry to check: FC(F)(F)c1cccc(C2=NOC3(CCCN(CC4CCCCC4)C3)C2)c1 (stereo unspecified)
6.26

New cases:
Reported activity change, negative = inhibition for Cc1cnc(-c2ccncc2)n1CCN : what is it?
-8.39

Entry to check: CCCCOc1ccc(CNC(=O)c2cc3n(n2)CC(C)(C(=O)NCc2ccccc2)N(C)C3=O)cc1 (stereo unspecified)
7.21

Entry to check: CC(=O)c1ccc2c(c1)[C@H](NC(=O)c1ccc(F)c(Cl)c1)[C@H](O)C(C)(C)O2
-13.1

###

Molecular target: Nicotinamide N-methyltransferase (Homo sapiens) (UniProt P40261)
Sequence (P40261 whole entry, looked up): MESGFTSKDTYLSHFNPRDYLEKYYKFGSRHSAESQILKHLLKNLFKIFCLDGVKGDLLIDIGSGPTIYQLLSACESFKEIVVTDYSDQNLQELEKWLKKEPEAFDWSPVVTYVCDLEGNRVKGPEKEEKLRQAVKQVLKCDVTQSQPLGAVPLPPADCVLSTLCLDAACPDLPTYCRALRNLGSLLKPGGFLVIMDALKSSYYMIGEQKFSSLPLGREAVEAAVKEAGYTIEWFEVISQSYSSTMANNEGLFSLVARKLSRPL
Assay: Primary Screen for Target Class Profiling of Small Molecule Inhibitors of Methyltransferases; note: % is set by controls: 0 for no effect and ±100 for the full control effect
Conditions: purified enzyme, MTase-Glo SAH luminescence; measured here: NNMT inhibition; at 40 µM; stronger effect = lower value
Screen size: about 25,000 compounds; about 970 (3.9%) were called active. About 8% were inconclusive and are not listed. The sample holds actives, similar compounds and a random draw of the others, so the mix is not that of the screen.
measuredEndpoint: activity change, negative = inhibition

Examples with their reported activity change, negative = inhibition follow.
Reported activity change, negative = inhibition for Cc1ccc(C(=O)COC(=O)C(Cc2c[nH]c3ccccc23)NC(=O)c2ccc(Br)cc2)cc1 (centres undefined) : what is it?
-1.05%

Entry to check: CC(C)Cn1c(=O)c2ccccc2n2c(CCC(=O)N3CCN(c4cccc(Cl)c4)CC3)nnc12
-53.7%

Entry to check: C/C=C\NC(=O)C1NC(=O)C(CC(N)=O)NC(=O)C(NC(=O)C(=O)C(C)CC)Cc2ccc(O)c(c2)-c2cccc3c2NC(=O)C3(O)C1O (centres undefined)
-26.2%

Entry to check: CC(C)CCNC(=O)c1ccc2c(=O)nc3c(-c4ccc(Cl)cc4)n[nH]n3c2c1
0.687%

Entry to check: O=C(c1ccc(C(F)(F)F)cc1)N1CCC2(COc3ccncc3[S+](=O)([O-])N2)C1 (centres undefined)
-5.7%

New cases:
Reported activity change, negative = inhibition for Cc1c(NS(=O)(=O)c2cccc3c2C(=O)c2ccccc2C3=O)c(=O)n(-c2ccccc2)n1C : what is it?
-8.5%

Entry to check: CN1C(=O)C2(CCN(Cc3cccn3C)C2)c2ccccc21 (centres undefined)
-15.9%

Entry to check: Cc1ccccc1CN1C(=O)c2cc(-c3cccs3)nn2CC1(C)C(=O)NC1CCCCC1 (centres undefined)
3.22%

Entry to check: COc1ccc(-c2ncc3c(n2)OCCN(Cc2ccccc2)C3=O)cn1
-19.1%

Entry to check: Cc1ccc(Cn2c(=O)c3ccc(C(=O)NC(C)C)cc3n3c(=O)n(Cc4cccc(F)c4)nc23)cc1
5.05%

Entry to check: O=C(O)CC1CCC(c2ccc(-c3ccc(Nc4ccc(C(F)(F)F)nc4)cn3)cc2)CC1 (centres undefined)
-35.3%

Entry to check: CCCn1c(=O)c2ccc(C(=O)NC3CCCC3)cc2n2c(=O)n(Cc3ccc(F)cc3Cl)nc12
-5.65%

Entry to check: O=c1c2ccccc2n2c(=O)n(Cc3cccc(F)c3)nc2n1CCc1ccccc1
-7.17%
